tested on: OVCAR-8 ovarian; assay: NCI tumour cell line growth inhibition, 48 h
Measured Quantity: TGI

1) CO[C@H]1[C@@H](O)[C@@H](C)O[C@@H](O[C@H]2CC[C@@]3(C)[C@H](CC[C@@H]4[C@@H]3CC[C@]3(C)[C@@H](C5=CC(=O)OC5)CC[C@]43O)C2)[C@@H]1O: 0.0444 µM
2) Cc1cc(Cc2cc(C)c(O)c(C)c2)cc(C)c1O: > 100 µM
3) O=C(O)CN=C(C(=NCC(=O)O)c1ccccc1)c1ccccc1: > 100 µM
4) CC1(C)CCC[C@@]2(C)C1C[C@H](O)[C@@]1(C)O[C@@](C)([C@H](O)CO)CCC21 (stereo partly specified): > 100 µM
5) FC(F)(F)c1nc2ccc(SSc3ccc4nc(C(F)(F)F)[nH]c4c3)cc2[nH]1: > 100 µM
6) Nc1ncnc2c1ncn2C1OC(CSC(F)(F)F)C(O)C1O (stereo unspecified): > 100 µM
7) CCOc1cc(-c2nc3ccccn3c2/N=C/c2cc([N+](=O)[O-])cc([N+](=O)[O-])c2O)ccc1O: > 100 µM
8) COC(=O)[C@H]1[C@H]2C[C@@H]3c4[nH]c5cc(OC)ccc5c4CCN3C[C@H]2C[C@@H](OC(=O)c2cc(OC)c(OC)c(OC)c2)[C@@H]1OC: 49.6 µM
9) N#Cc1nc(CSCc2ccccc2)oc1N: > 100 µM
10) CCCCCCCC(=O)OC[n+]1ccc(-c2c(COC(=O)NC(C)C)c(COC(=O)NC(C)C)c3n2CCC3)cc1: > 100 µM
11) Oc1c(C(Nc2cccc3ccccc23)c2ccccc2)ccc2cccnc12 (stereo unspecified): 39.3 µM
12) Oc1[nH]c2ccccc2c1N=NC(=S)N1CCCCC1: 1.8 µM
13) Cc1cc(N2CCN(C)CC2)nc(NCc2cc(Nc3ccnc4cc(Cl)ccc34)ccc2F)n1: 9.68 µM
14) O=C(Cc1nc2ccccc2c(=O)n1-c1c(Cl)cccc1Cl)c1ccncc1: > 100 µM
15) N#CC(C#N)=Cc1c(-c2ccccc2)[nH]c2ccccc12: > 90.2 µM
16) CN1CCN(CCCOc2cccc3nc(Nc4ccc(Cl)c(F)c4)ccc23)CC1: 3.65 µM
17) C=C1C(=O)O[C@H]2[C@H]1CC/C(Cn1cc(CNCCc3c[nH]c4ccc(Cl)cc34)nn1)=C\CC[C@@]1(C)O[C@@H]21: 29.1 µM
18) Cc1onc(-c2c(F)cccc2Cl)c1-c1ncc(-c2ccc(Cl)cc2)o1: > 100 µM
19) C=CCN1C(=O)CC1N(CC=C)S(=O)(=O)c1ccc(C)cc1 (stereo unspecified): > 100 µM
20) NC1=NC(c2ccc(Cl)cc2)N(c2ccc(S(=O)(=O)Nc3ncccn3)cc2)C(N)=N1 (stereo unspecified): > 100 µM
21) O=C(C/C(=N\NC(=O)C[n+]1ccccc1)C(=O)Nc1nc2ccc([N+](=O)[O-])cc2s1)CC(c1ccccc1)c1c(O)c2ccccc2oc1=O (stereo unspecified): > 100 µM
22) CC1=C(C(=O)N[C@@H](Cc2ccccc2)C(=O)O)N2C(=O)[C@@H](NC(=O)[C@@H](N)CC(C)C)[C@H]2SC1: > 100 µM
23) NC(=O)c1cc(-c2ccncc2)cc(-c2ccccc2)c1N: > 25 µM
24) COc1ccc(C(C#N)NC23CC4CC(CC(C4)C2)C3)cc1OC (stereo unspecified): > 100 µM
25) CCOC(=O)c1cc(/C=C/C(C)=C/C(=O)OC)oc1-c1ccccc1: > 100 µM
26) CNC(C)Cc1ccccc1O (stereo unspecified): > 100 µM
27) O=c1oc2cc(N=Cc3ccccc3Cl)ccc2c2ccccc12: > 100 µM
28) CCOC(=O)N1CCN(c2c(C)nc(C)[nH]c2=O)CC1: > 100 µM
29) N=CCCN(CCC=N)c1ccc(/C=C2\CN(NC(=O)c3ccc(Cl)cc3)C(c3ccccc3)=N2)cc1: > 100 µM
30) COc1ccc(-c2cc(-c3ccc(Cl)cc3)n(C3OC(CO)C(O)C(O)C3O)c(=S)c2C#N)cc1 (stereo unspecified): > 100 µM
31) O=C(CBr)N1CCC2(CC1)SSC1(CCN(C(=O)CBr)CC1)S2: 4.62 µM
32) CC1SC(c2ccccc2)N(Nc2c3ccccc3nc3ccccc23)C1=O (stereo unspecified): > 100 µM
33) COc1c(C2=NC(C(C)C)CO2)ccc2ccccc12 (stereo unspecified): > 100 µM
34) O=C(c1ccco1)C1CC(c2ccc3ccccc3c2O)=NN1 (stereo unspecified): > 100 µM
35) COC(=O)c1ccc(Oc2nc3ccccc3nc2-c2cccs2)cc1: > 100 µM
36) CN1CCC(CNC(=O)CCCCCCCCC(=O)NCC2(c3ccccc3)CCN(C)CC2)(c2ccccc2)CC1: > 100 µM
37) CN(C)/C(N)=N/C(N)=Nc1cccc(Cl)c1: > 100 µM
38) O=C(/C=C/c1ccccc1)c1c[nH]c2ccccc2c1=O: 6.82 µM
39) C=CCC1C(=O)C(C(=O)OC)N2CCc3c([nH]c4ccccc34)C12 (stereo unspecified): > 100 µM
40) CCn1nc(C)c2c1C(=O)NC(C)C(=O)N2 (stereo unspecified): > 100 µM
41) O=C(O)c1c[nH]c2c(=O)[nH]cnc12: > 100 µM
